Biological target: CymD (Salinispora arenicola, UniProt A8M6W6)
Sequence (A8M6W6 2-373): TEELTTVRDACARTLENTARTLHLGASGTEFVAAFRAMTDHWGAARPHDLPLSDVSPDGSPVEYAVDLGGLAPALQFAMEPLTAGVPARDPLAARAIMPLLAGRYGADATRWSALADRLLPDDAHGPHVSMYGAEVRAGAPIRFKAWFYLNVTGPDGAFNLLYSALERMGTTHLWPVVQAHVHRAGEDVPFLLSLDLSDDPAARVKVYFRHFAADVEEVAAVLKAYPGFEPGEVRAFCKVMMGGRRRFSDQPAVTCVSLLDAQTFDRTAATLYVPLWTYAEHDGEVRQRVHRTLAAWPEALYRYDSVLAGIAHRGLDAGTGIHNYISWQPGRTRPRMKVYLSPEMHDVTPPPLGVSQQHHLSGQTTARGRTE
Assay: ITC
Format: binding
EXPERIMENTAL ENDPOINT: Kd (µM)
Give the quantity in µM, number only.

Ask: Give its Kd value. Item: N[C@@H](Cc1c[nH]c2ccccc12)C(=O)O [L-Trp]
Result: 4.4
